Numbers sourced from the supplement of paper PMC10307832.

Tested on: NCI-H596
procedure_text: relative viability (nuclei count vs DMSO), 5 days (fraction); higher = more cells survive
condition_label: first compound 8 µM
The molecules listed here are annotated with their relative viability.

molecule	relative viability
Nc1cccc2c1CN(C1CCC(=O)NC1=O)C2=O (stereo not given) [Lenalidomide] + NC(=O)Nc1cc(-c2cccc(F)c2)sc1C(=O)N[C@H]1CCCNC1 [AZD7762] (partner 0.2 µM)	1
Nc1cccc2c1CN(C1CCC(=O)NC1=O)C2=O (stereo not given) [Lenalidomide] + COc1cccc2cc(-c3nc([C@H]4CC[C@H](C(=O)O)CC4)n4ncnc(N)c34)[nH]c12 [OSI-027] (partner 0.5 µM)	0.532
Nc1cccc2c1CN(C1CCC(=O)NC1=O)C2=O (stereo not given) [Lenalidomide] + CC(=O)Nc1cccc(-n2c(=O)n(C3CC3)c(=O)c3c(Nc4ccc(I)cc4F)n(C)c(=O)c(C)c32)c1 [Trametinib] (partner 0.02 µM)	0.766
Nc1cccc2c1CN(C1CCC(=O)NC1=O)C2=O (stereo not given) [Lenalidomide] + Cc1nc(Nc2ncc(C(=O)Nc3c(C)cccc3Cl)s2)cc(N2CCN(CCO)CC2)n1 [Dasatinib] (partner 0.075 µM)	0.505
Nc1cccc2c1CN(C1CCC(=O)NC1=O)C2=O (stereo not given) [Lenalidomide] + O=C(CCCCCCC(=O)Nc1ccccc1)NO [Vorinostat] (partner 1 µM)	0.52
